Numbers sourced from paper doi:10.1101/2024.06.07.597859v1.

- Tgt: UniProt A0A144A1E9
- Sequence (A0A144A1E9 1-220): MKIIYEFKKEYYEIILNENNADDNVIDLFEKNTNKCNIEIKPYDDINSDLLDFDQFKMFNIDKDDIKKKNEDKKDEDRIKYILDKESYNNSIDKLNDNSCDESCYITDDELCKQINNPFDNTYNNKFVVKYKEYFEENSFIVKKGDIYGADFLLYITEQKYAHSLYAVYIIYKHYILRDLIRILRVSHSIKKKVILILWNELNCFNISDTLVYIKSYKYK
Property Label: Kd (µM)
Numbers only, in µM.

Query block: Return reported Kd; argument: NCCCn1ccc2c1C(=O)c1cccnc1C2=O [TSENi]
Result block: 0.945
